System: cocklebur
protocol.details: Test B pre/postemergence cocklebur
Assay type: in vivo, Xanthium strumarium
condition.info: Preemergence, Rate 250 g/ha; scale 0 to 10 (0 no effect, 10 complete control)
assay.metric: Plant response rating, Cocklebur
Answer using only a numeral; do not append any unit.

// solved cases for Plant response rating, Cocklebur follow
CC(C)N(C(=O)n1oc(=O)n(C(C)C(=S)N(C)C)c1=O)c1ccccc1 (stereo not drawn) tested on cocklebur gave Plant response rating, Cocklebur: 0

CC(C)N(C(=O)n1oc(=O)n(CCC2=NOCCC2)c1=O)c1ccc(F)cc1 tested on cocklebur gave Plant response rating, Cocklebur: 0

CC(C)N(C(=O)n1oc(=O)n(CC2CCCCO2)c1=O)c1ccccc1 (stereo not drawn) tested on cocklebur gave Plant response rating, Cocklebur: 0

---
COCCn1c(=O)on(C(=O)N(c2ccc(F)cc2)C(C)C)c1=O tested on cocklebur gave Plant response rating, Cocklebur: 6

COP(=O)(CCn1c(=O)on(C(=O)N(c2ccc(Cl)cc2)C(C)C)c1=O)OC tested on cocklebur gave Plant response rating, Cocklebur: 0

CC(C)N(C(=O)n1oc(=O)n(C(C)C=O)c1=O)c1ccccc1 (stereo not drawn) tested on cocklebur gave Plant response rating, Cocklebur: 0

* * *

Tested on: pigweed
protocol.details: Test B pre/postemergence pigweed
Type: in vivo, Amaranthus retroflexus
condition.info: Rate 500 g/ha, Postemergence; scale 0 to 10, 0 no effect, 10 complete control
assay.metric: Redroot pigweed plant response rating

// solved cases for Redroot pigweed plant response rating follow
The recorded Redroot pigweed plant response rating for CC(C)N(C(=O)n1oc(=O)n(C(C)C)c1=O)c1ccc(Cl)cc1 [Compound 114] is 3

The recorded Redroot pigweed plant response rating for CCCn1c(=O)on(C(=O)N(c2ccc(F)cc2)C(C)C)c1=O [Compound 91] is 8

The recorded Redroot pigweed plant response rating for COc1cccc(C)c1-n1c(=O)on(C(=O)N(c2ccc(F)cc2F)C(C)C)c1=O [Compound 74] is 0

---
The recorded Redroot pigweed plant response rating for Cc1cccc(Cl)c1-n1c(=O)on(C(=O)N(c2ccc(Cl)cc2)C(C)C)c1=O [Compound 54] is 4

The recorded Redroot pigweed plant response rating for CC(C)N(C(=O)n1oc(=O)n(-c2ccnn2C)c1=O)c1ccc(F)cc1 [Compound 124] is 0

The recorded Redroot pigweed plant response rating for CC(C)N(C(=O)n1oc(=O)n(N(C)C)c1=O)c1ccccc1 [Compound 225] is 2

* * *

System: blackgrass
protocol.details: Test B pre/postemergence blackgrass
Format: in vivo, Alopecurus myosuroides
condition.info: Postemergence, Rate 125 g/ha; scale 0 to 10, 0 is no effect, 10 is complete control
assay.metric: Blackgrass plant response rating
Answer using only a numeral; do not append any unit.

The recorded Blackgrass plant response rating for C=CCCCn1c(=O)on(C(=O)N(c2ccc(Cl)cc2)C(C)C)c1=O [Compound 546] is 0

The recorded Blackgrass plant response rating for CC(C)N(C(=O)n1oc(=O)n(CCNC(=O)CCl)c1=O)c1ccccc1 [Compound 492] is 0

The recorded Blackgrass plant response rating for CC(C)N(C(=O)n1oc(=O)n(CCCC(F)(F)F)c1=O)c1ccc(F)cc1F [Compound 526] is 6

---
The recorded Blackgrass plant response rating for CC(C)N(C(=O)n1oc(=O)n(CC(=O)C2CC2)c1=O)c1ccc(F)cc1F [Compound 490] is 4

* * *

Catalogue of Cocklebur plant response rating values
Tested on: cocklebur
protocol.details: Test B pre/postemergence cocklebur
Assay type: in vivo, Xanthium strumarium
condition.info: Rate 250 g/ha, Postemergence; scale 0 to 10, 0 is no effect, 10 is complete control
Answer using only a numeral; do not append any unit.

// solved cases for Cocklebur plant response rating follow
Cc1nc(C(C)n2c(=O)on(C(=O)N(c3ccc(F)cc3)C(C)C)c2=O)sc1C (centres unmarked) tested on cocklebur gave Cocklebur plant response rating: 2

COC(=O)C(CCO)n1c(=O)on(C(=O)N(c2ccc(F)cc2)C(C)C)c1=O (centres unmarked) tested on cocklebur gave Cocklebur plant response rating: 0

---
CC(C)N(C(=O)n1oc(=O)n(C[C@H](C)Cl)c1=O)c1ccc(Cl)cc1 tested on cocklebur gave Cocklebur plant response rating: 0

CC(C)N(C(=O)n1oc(=O)n(CC(F)F)c1=O)c1ccc(F)cc1 tested on cocklebur gave Cocklebur plant response rating: 0

CC(C)N(C(=O)n1oc(=O)n(CCCCl)c1=O)c1ccc(Cl)cc1 tested on cocklebur gave Cocklebur plant response rating: 4

* * *

Catalogue of Blackgrass plant response rating values
Tested on: blackgrass
protocol.details: Test B pre/postemergence blackgrass
Format: in vivo, Alopecurus myosuroides
condition.info: Preemergence, Rate 250 g/ha; scale of 0 to 10 where 0 is no effect and 10 is complete control
Answer using only a numeral; do not append any unit.

The recorded Blackgrass plant response rating for CC(C)C(C)n1c(=O)on(C(=O)N(c2ccccc2)C(C)C)c1=O (stereo not shown) is 5

---
The recorded Blackgrass plant response rating for CC(C)N(C(=O)n1oc(=O)n(CCC#N)c1=O)c1ccc(F)cc1 is 5

The recorded Blackgrass plant response rating for CCN(C(=O)n1oc(=O)n(C2CCCCC2)c1=O)C1CCCCC1 is 0

The recorded Blackgrass plant response rating for C=CCn1c(=O)on(C(=O)N(c2ccc(Cl)cc2)C(C)C2CC2)c1=O (stereo not shown) is 2

* * *

Test system: cocklebur
protocol.details: Test B pre/postemergence cocklebur
Format: in vivo, Xanthium strumarium
condition.info: Preemergence, Rate 125 g/ha; scale of 0 to 10 where 0 is no effect and 10 is complete control
assay.metric: Cocklebur plant response rating
Answer using only a numeral; do not append any unit.

The recorded Cocklebur plant response rating for COCCn1c(=O)on(C(=O)N(c2ccc(F)cc2)C(C)C)c1=O is 6

---
The recorded Cocklebur plant response rating for C=C(Cn1c(=O)on(C(=O)N(c2ccccc2)C(C)C)c1=O)c1cccc(Cl)n1 is 0

The recorded Cocklebur plant response rating for CC(C)N(C(=O)n1oc(=O)n(C(C)C)c1=O)c1ccncc1 is 0

The recorded Cocklebur plant response rating for CC(C)N(C(=O)n1oc(=O)n(CC2CCC2)c1=O)c1ccccc1 is 0

The recorded Cocklebur plant response rating for CC(C)N(C(=O)n1oc(=O)n(CNC(=O)c2ccccc2)c1=O)c1ccccc1 is 0

The recorded Cocklebur plant response rating for CC(C)N(C(=O)n1oc(=O)n(CC[N+](=O)[O-])c1=O)c1ccc(F)cc1F is 0

The recorded Cocklebur plant response rating for CC(C)N(C(=O)n1oc(=O)n(CC2CCCCO2)c1=O)c1ccc(Cl)cc1 (stereo not shown) is 0

* * *

Catalogue of Velvetleaf plant response rating values
System: velvetleaf
protocol.details: Test B pre/postemergence velvetleaf
Format: in vivo, Abutilon theophrasti
condition.info: Preemergence, Rate 250 g/ha; scale 0 (no effect) to 10 (complete control)

The recorded Velvetleaf plant response rating for CC(=O)OCC(CCl)n1c(=O)on(C(=O)N(c2ccc(F)cc2F)C(C)C)c1=O (racemic) is 2

The recorded Velvetleaf plant response rating for CC(C)N(C(=O)n1oc(=O)n(CCN(C)C(=O)c2ccccc2)c1=O)c1ccc(F)cc1F is 0

The recorded Velvetleaf plant response rating for C#CCn1c(=O)on(C(=O)N(c2ccccc2)C(C)C)c1=O is 3

The recorded Velvetleaf plant response rating for COC(CCl)n1c(=O)on(C(=O)N(c2ccc(Cl)cc2)C(C)C)c1=O (stereo not drawn) is 0

The recorded Velvetleaf plant response rating for COCC(OC)n1c(=O)on(C(=O)N(c2ccccc2)C(C)C)c1=O (stereo not drawn) is 5

The recorded Velvetleaf plant response rating for CC(=O)NCCn1c(=O)on(C(=O)N(c2ccc(F)cc2)C(C)C)c1=O is 0

* * *

Test system: bedstraw
protocol.details: Test B pre/postemergence bedstraw
Type: in vivo, Galium aparine
condition.info: Preemergence, Rate 250 g/ha
assay.metric: Bedstraw plant response rating (0 to 10 scale)
Answer using only a numeral; do not append any unit.

The recorded Bedstraw plant response rating (0 to 10 scale) for CC(C)N(C(=O)n1oc(=O)n(CCCF)c1=O)c1ccccc1 is 0

The recorded Bedstraw plant response rating (0 to 10 scale) for CC(C)N(C(=O)n1oc(=O)n(CCCC(F)(F)F)c1=O)c1ccccc1 is 9

The recorded Bedstraw plant response rating (0 to 10 scale) for CC(C)N(C(=O)n1oc(=O)n(CC2CCC2)c1=O)c1ccccc1 is 6

The recorded Bedstraw plant response rating (0 to 10 scale) for CC(C)N(C(=O)n1oc(=O)n(C[Si](C)(C)C)c1=O)c1ccccc1 is 0

The recorded Bedstraw plant response rating (0 to 10 scale) for CC(C)N(C(=O)n1oc(=O)n(CCCC(F)(F)F)c1=O)c1ccc(F)cc1F is 7

* * *

System: giant foxtail
protocol.details: Test B pre/postemergence giant foxtail
Format: in vivo, Setaria faberii
condition.info: Rate 500 g/ha, Postemergence; scale 0 to 10, 0 no effect, 10 complete control
assay.metric: Giant foxtail plant response rating
Answer using only a numeral; do not append any unit.

CC(C)N(C(=O)n1oc(=O)n(C(C)(C)C)c1=O)c1ccc(Cl)cc1 tested on giant foxtail gave Giant foxtail plant response rating: 9

Cc1cccc(Cl)c1-n1c(=O)on(C(=O)N(c2ccc(Cl)cc2)C(C)C)c1=O tested on giant foxtail gave Giant foxtail plant response rating: 5

CC(C)N(C(=O)n1oc(=O)n(CCC2OCCCO2)c1=O)c1ccc(F)cc1 tested on giant foxtail gave Giant foxtail plant response rating: 8

Cc1nc(C)c(Cn2c(=O)on(C(=O)N(c3ccc(F)cc3)C(C)C)c2=O)s1 tested on giant foxtail gave Giant foxtail plant response rating: 3

Attention now shifts to the item below.
C=CCn1c(=O)on(C(=O)N(c2ccc(Cl)cc2)C(C)C)c1=O tested on giant foxtail gave Giant foxtail plant response rating: 8
